This collection of values is drawn from patent US20060058231A1.

- target desc: T1, ActRIIa receptor-Fc fusion (UniProt P27037 20-134, limits assumed)
- T1 construct: BMP receptor-Fc fusion used at 5 ug/mL
- T1 sequence (P27037 20-134 limits assumed): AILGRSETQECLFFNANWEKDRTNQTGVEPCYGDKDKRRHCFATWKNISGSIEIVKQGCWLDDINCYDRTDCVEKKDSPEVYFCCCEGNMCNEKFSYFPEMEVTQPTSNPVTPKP
- experiment description: ELISA-like plate assay, captured BMP-7 from conditioned media, receptor-Fc detection
Would you mind telling me the reported ActRIIa binding (relative to wild type = 1.0) of each entry?

Endpoint output: ActRIIa binding (relative to wild type = 1.0) of BMP-7 variant M23N (ligand, In conditioned media; numbering on mature BMP-7) STGGKQRSQNRSKTPKNQEALRNASVAENSSSDQRQACKKHELYVSFRDLGWQDWIIAPEGYAAYYCEGECAFPLNSYMNATNHAIVQTLVHFINPETVPKPCCAPTQLNAISVLYFDDSSNVILKKYRNMVVRACGCH . Value?
0.94 relative to wild type

Quick one: BMP-7 variant K39S (ligand, In conditioned media; numbering on mature BMP-7) STGGKQRSQNRSKTPKNQEALRMASVAENSSSDQRQACSKHELYVSFRDLGWQDWIIAPEGYAAYYCEGECAFPLNSYMNATNHAIVQTLVHFINPETVPKPCCAPTQLNAISVLYFDDSSNVILKKYRNMVVRACGCH
1.04 relative to wild type
